Items are presented alongside their recorded z-score.
- measurement.protocol: basal 3T3-L1 adipocyte mitochondrial potential changes, profiling panel, cell-based, JC-1 fluorescence, 3T3-L1 adipocytes, 24 h, 100 nL compound (AID 1168); also: test concentration not given here
- measurement.context: JC-1 mitochondrial fluorescence, higher = more signal, called active from +8 up or from −8 down
Please state the value as a number alone, without comment.

{"columns": ["compound", "z-score"],
 "data": [
  ["COC(=O)[C@@]1(Cc2ccc(OC)cc2)[C@H]2c3cc(C(=O)N(C)C)n(Cc4ccc(Cl)c(C(F)(F)F)c4)c3C[C@H]2CN1C(=O)c1ccccc1", -0.938],
  ["CC[C@H]1C2=C3C(CC[C@H]4C(OCc5ccc(F)cc5C(F)(F)F)OC[C@](C)([C@@H]34)N(C(=O)OC(C)(C)C)C2)C(COC)C1COC (stereo partly specified)", -0.159],
  ["COc1ccc([Si](C)(C)[C@@H]2[C@@H](CC(=O)N3Cc4ccccc4C[C@H]3CO)O[C@]3(C(=O)N(Cc4cccc(N5C(=O)c6cccc7cccc5c67)c4)c4ccccc43)[C@H]2C)cc1", 1.14]
]}

Data request, read-out z-score, for O=C1O[C@@H](c2ccccc2)[C@@H](c2ccccc2)N2[C@@H](c3ccccc3OCCO)[C@]3(C(=O)Nc4ccc(C#CCCO)cc43)[C@@H](C(=O)N3CCCCCCC3)[C@H]12
0.363

Data request, read-out z-score, for COC(=O)[C@@]1(Cc2ccc(F)cc2)[C@H]2c3cc(C(=O)N4CCCC4)n(CCN4CNCC4=O)c3C[C@H]2CN1C(=O)c1ccccc1
-0.933

Data request, read-out z-score, for COC(=O)CCCCCCC(=O)Nc1ccc(NC(=O)CCCC[P+](c2ccccc2)(c2ccccc2)c2ccccc2)cc1
1.03

====

Items are presented alongside their recorded composite z-score.
- subject.of.test: Torsin-1A (Homo sapiens) (UniProt O14656)
- Sequence (O14656 whole entry, looked up): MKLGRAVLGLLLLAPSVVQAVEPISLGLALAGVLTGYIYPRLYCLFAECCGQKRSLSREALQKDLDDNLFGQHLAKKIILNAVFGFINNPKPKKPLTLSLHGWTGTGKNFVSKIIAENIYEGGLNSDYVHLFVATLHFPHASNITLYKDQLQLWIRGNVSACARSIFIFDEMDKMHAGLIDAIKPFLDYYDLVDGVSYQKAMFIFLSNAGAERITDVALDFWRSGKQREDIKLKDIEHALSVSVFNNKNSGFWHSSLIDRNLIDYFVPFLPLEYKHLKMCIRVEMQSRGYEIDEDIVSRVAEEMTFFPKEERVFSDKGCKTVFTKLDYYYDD
- measurement.protocol: small-molecule binders of mutant TOR1A in lysate, primary screen, cell lysate, small-molecule microarray, COS7 lysate, 635/667 nm fluorescence (AID 1150);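 also: score pools 667 nm emission and signal to noise measuring lysate protein binding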
- measurement.context: COS7 hTOR1A mutant lysate, 635 nm fluorescence, higher = more signal
Please state the value as a number alone, without comment.

Missing value: composite z-score, Torsin-1A (Homo sapiens) (UniProt O14656), entry O=C1O[C@@H](c2ccccc2)[C@@H](c2ccccc2)N2[C@@H](c3ccc(O)cc3)[C@]3(C(=O)Nc4ccc(C#CC5(O)CCCCCC5)cc43)[C@@H](C(=O)NC[C@H](O)c3ccccc3)[C@H]12 . Fill in?
-0.135

Missing value: composite z-score, Torsin-1A (Homo sapiens) (UniProt O14656), entry C=CCOC(=O)[C@H]1[C@@H]2C(=O)O[C@@H](c3ccccc3)[C@@H](c3ccccc3)N2[C@@H](c2ccc(OCCOC(=O)[C@H]3C[C@H]4C(=O)N[C@@H](CC(C)C)C(=O)N4[C@H]3c3cccc(OCCO)c3)cc2)[C@]12C(=O)Nc1ccc(I)cc12 . Fill in?
0.908

====

Items are presented alongside their recorded z-score.
- measurement.protocol: yeast growth modulation, basal conditions, primary screen, YJM789 clinical isolate, OD600, 24 h (AID 1089);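 also: growth of clinical yeast isolate S. cerevisiae YJM 789 seeded 1000 cells per well; test concentration not given here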
- measurement.context: S. cerevisiae YJM789 growth, higher = more signal, called active from +8 up or from −8 down
Please state the value as a number alone, without comment.

{"columns": ["molecule", "meas.value"],
 "data": [
  ["CC(=O)NCCCC[C@@H]1NC(=O)[C@H]2C[C@@H](C(=O)NCCCC[N+](C)(C)C)[C@@H](c3cccc(OCCO)c3)N2C1=O", -0.369],
  ["O=C1O[C@H](c2ccccc2)[C@H](c2ccccc2)N2[C@H]1[C@@H](C(=O)NC[C@H](O)c1ccccc1)[C@]1(C(=O)Nc3ccc(C#CCCO)cc31)[C@H]2c1ccc(OCCO)cc1", 2.73],
  ["O=c1n(-c2ccccc2)c(=O)n2n1CC(COc1ccccc1)=C([C@H](O)CCc1ccccc1)[C@@H]2CO", -1.33]
]}

Pending molecule:
Data request, read-out z-score, for C=C(/C(=C/C[C@H](OC(C)=O)c1cccc(OCCO)c1)c1cnc2ccccc2c1)C(C)C
1.9

====

- subject.of.test: Torsin-1A (Homo sapiens) (UniProt O14656)
- measurement.protocol: small-molecule binders of mutant TOR1A in lysate, primary screen, cell lysate, small-molecule microarray, COS7 lysate, 635/667 nm fluorescence (AID 1150);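 also: score pools 667 nm emission and signal to noise measuring lysate protein binding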
- measurement.context: COS7 hTOR1A mutant lysate, 635 nm fluorescence, higher = more signal
Classification field: enter criterion met for composite z-score values not below 0.3, criterion not met for values below it.

{"columns": ["compound", "assigned.class"],
 "data": [
  ["C=C(/C(=C/C[C@H](OC(C)=O)c1ccccc1OCCO)c1cc(C(=O)OC)ccc1OC)C(C)C", "criterion met"],
  ["CN(C)C(=O)[C@]1(CCS(=O)(=O)c2ccccc2)N=C(c2ccc(OCCCO)cc2)O[C@@H]1c1ccccc1N=[N+]=[N-]", "criterion met"],
  ["COC(=O)[C@@]1(Cc2ccccc2)[C@H]2c3cc(C(=O)N(C)C)n(Cc4c(CO)[nH]cc(C)c4=O)c3C[C@H]2CN1C(=O)c1ccccc1", "criterion met"],
  ["CC(C)C(=C=CC[C@H](O)c1cccc(OCCO)c1)C[C@H](O)c1cc(Cl)cc(Cl)c1O", "criterion not met"],
  ["C=CC[C@]1(C(=O)NCCN2CCOCC2)N=C(c2ccc(OCCCO)cc2)O[C@H]1c1ccccc1CN=[N+]=[N-]", "criterion met"],
  ["COC(=O)CCCCCCC(=O)Nc1ccc(NC(=O)CCCC[P+](c2ccccc2)(c2ccccc2)c2ccccc2)cc1", "criterion not met"],
  ["CO[C@]12C=C(Br)[C@@H](C[C@@H]1c1cccc(C)c1)[C@@]1(CO1)C2=O", "criterion not met"],
  ["CC1CC/C=C\\[C@H]2OC34C=CCN(c5ccc(Cl)cc5)C(=O)[C@H]3N(CCCCCO)C(=O)[C@]4(C)C2C(=O)O1 (stereo not given in full)", "criterion not met"]
]}

Could you tell me if the measured composite z-score of O=C1OCCC=C[C@H]2OC34C=CCN(Cn5nnc6ccccc65)C(=O)[C@H]3N(CCCCCCO)C(=O)[C@@H]4C12 (stereo not given in full) reaches 0.3 or more?
criterion not met

Could you tell me if the measured composite z-score of C[C@@H]1NC(=O)[C@@]23C(=O)N[C@@H](Cc4ccccc4)C2[C@H](C)[C@@]2(C)O[C@H]2C3/C=C/C/C=C\CNC(=O)[C@@H]2CCCN2C1=O (stereo not given in full) reaches 0.3 or more?
criterion not met

Could you tell me if the measured composite z-score of C=CC[C@@]1(C(=O)N2CCOCC2)N=C(c2ccc(OCCCO)cc2)O[C@@H]1c1ccccc1CN=[N+]=[N-] reaches 0.3 or more?
criterion met

Could you tell me if the measured composite z-score of CO[C@H]1O[C@H](CO)[C@@H](OC(=O)Nc2ccc3c(c2)OCO3)[C@H](OC(=O)c2cc3ccccc3[nH]2)[C@H]1OC(=O)c1cc2ccccc2[nH]1 reaches 0.3 or more?
criterion not met

Could you tell me if the measured composite z-score of Cc1cc(C)c(C(O)C2C=CC3C(=O)NC(=O)C3N2Nc2ccc(Cl)cc2Cl)c(C)c1 (stereo not given) reaches 0.3 or more?
criterion met

====

Items are presented alongside their recorded z-score.
- measurement.protocol: E. coli acrAB mutant growth effects, primary screen, E. coli filamentation inducers, strain DRC39, OD650, 48 h (AID 1179);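 also: screen aims at cell division blockers that make cells filament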
- measurement.context: E. coli DRC39 delta-acrAB growth, higher = more signal, called active from +8 up or from −8 down
Please state the value as a number alone, without comment.

Here are 6 compounds together with their reported answers.
{"columns": ["compound", "meas.value"],
 "data": [
  ["O=C1O[C@H](c2ccccc2)[C@H](c2ccccc2)N2[C@H]1[C@@H](C(=O)O)[C@]1(C(=O)Nc3ccc(C#CC4=CCCCC4)cc31)[C@H]2c1ccc(O)cc1", -0.174],
  ["O=C1C2C=CC(C(O)c3ccc(Br)cc3)N(Nc3ccccc3F)C2C(=O)N1c1ccccc1 (configuration not stated)", 2.06],
  ["CC(C)C(=C=CC[C@H](O)c1ccc(OCCO)cc1)C[C@H](O)c1ccccn1", 0.879],
  ["COc1cc(CO)cc(I)c1O[C@H]1C=C(C(=O)NCCO)C[C@@H](NCc2ccc(F)cc2)[C@@H]1O", 0.878],
  ["CC1CC/C=C\\[C@H]2OC34C=CCN(c5ccc(Cl)cc5)C(=O)[C@H]3N(CCCCCO)C(=O)[C@]4(C)C2C(=O)O1 (some centres not stated)", 0.227],
  ["C=CCC(OC(C)=O)[C@@H]1[C@@H](N(Cc2cccc3ccccc23)C(=O)c2cccc3ccccc23)c2cc(OCCCO)ccc2N1C(=O)c1ccc(-c2ccccc2)cc1 (some centres not stated)", -0.123]
]}

Pending compound:
Data request, read-out z-score, for COC(=O)[C@@]1(Cc2ccc(F)cc2)[C@H]2c3cc(C(=O)N(C)C)n(CCc4ccc(O)c(OC)c4)c3C[C@H]2CN1C(=O)c1ccccc1
-0.574
